system_under_test: papain (Carica papaya, UniProt P00784)
Construct: purchased Sigma Chem. Co
Sequence (P00784 134-345): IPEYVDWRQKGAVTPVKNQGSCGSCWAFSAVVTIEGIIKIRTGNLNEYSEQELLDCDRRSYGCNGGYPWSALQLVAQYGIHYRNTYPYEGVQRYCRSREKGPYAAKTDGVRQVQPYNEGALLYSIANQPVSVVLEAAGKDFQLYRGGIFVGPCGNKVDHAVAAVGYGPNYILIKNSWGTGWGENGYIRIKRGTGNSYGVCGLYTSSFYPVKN
procedure_details: Papain inhibitory activity (method of K. Hanada et al)
Assay type: biochemical
stated_conditions: papain 80 ug/ml, Sigma, 2 x cry.
Structures can show the parent of a compound that is named as a salt.
Quick rule for you: Papain ID50 (amount of inhibitor for 50% inhibition) at 0.4 µg or higher means true, lower means false.

Please review the entries below; each comes with its answer.
CCOC(=O)CNC(=O)[C@@H](NC(=O)C1OC1C(=O)OCc1ccccc1)C(C)CC (stereo partly shown): true
COC(=O)[C@H](C)NC(=O)[C@@H](NC(=O)C1OC1C(=O)OCc1ccccc1)C(C)C (stereo partly shown): true
CC(C)C[C@H](NC(=O)[C@H](CC(C)C)NC(=O)C1OC1C(=O)OCc1ccccc1)C(N)=O (stereo partly shown): false
COC(=O)CC[C@H](NC(=O)[C@H](CC(C)C)NC(=O)C1OC1C(=O)O)C(=O)OC (mixture of isomers): false
CC(C)C[C@H](NC(=O)C1OC1C(=O)O)C(=O)NCCc1ccccc1 (mixture of isomers) [Compound 16, potassium salt]: false

Enquiry: Determine whether measured Papain ID50 (amount of inhibitor for 50% inhibition) meets or exceeds 0.4 µg for COC(=O)[C@H](CCCN=C(N)N)NC(=O)[C@H](CC(C)C)NC(=O)C1OC1C(=O)O (mixture of isomers)
Return: false

Enquiry: Determine whether measured Papain ID50 (amount of inhibitor for 50% inhibition) meets or exceeds 0.4 µg for CCOC(=O)C1OC1C(=O)N[C@@H](CC(C)C)C(=O)N1CCCCC1 (mixture of isomers)
Return: true
